SYSTEM: Bile salt export pump (Rattus norvegicus)
Sequence (O70127 whole entry): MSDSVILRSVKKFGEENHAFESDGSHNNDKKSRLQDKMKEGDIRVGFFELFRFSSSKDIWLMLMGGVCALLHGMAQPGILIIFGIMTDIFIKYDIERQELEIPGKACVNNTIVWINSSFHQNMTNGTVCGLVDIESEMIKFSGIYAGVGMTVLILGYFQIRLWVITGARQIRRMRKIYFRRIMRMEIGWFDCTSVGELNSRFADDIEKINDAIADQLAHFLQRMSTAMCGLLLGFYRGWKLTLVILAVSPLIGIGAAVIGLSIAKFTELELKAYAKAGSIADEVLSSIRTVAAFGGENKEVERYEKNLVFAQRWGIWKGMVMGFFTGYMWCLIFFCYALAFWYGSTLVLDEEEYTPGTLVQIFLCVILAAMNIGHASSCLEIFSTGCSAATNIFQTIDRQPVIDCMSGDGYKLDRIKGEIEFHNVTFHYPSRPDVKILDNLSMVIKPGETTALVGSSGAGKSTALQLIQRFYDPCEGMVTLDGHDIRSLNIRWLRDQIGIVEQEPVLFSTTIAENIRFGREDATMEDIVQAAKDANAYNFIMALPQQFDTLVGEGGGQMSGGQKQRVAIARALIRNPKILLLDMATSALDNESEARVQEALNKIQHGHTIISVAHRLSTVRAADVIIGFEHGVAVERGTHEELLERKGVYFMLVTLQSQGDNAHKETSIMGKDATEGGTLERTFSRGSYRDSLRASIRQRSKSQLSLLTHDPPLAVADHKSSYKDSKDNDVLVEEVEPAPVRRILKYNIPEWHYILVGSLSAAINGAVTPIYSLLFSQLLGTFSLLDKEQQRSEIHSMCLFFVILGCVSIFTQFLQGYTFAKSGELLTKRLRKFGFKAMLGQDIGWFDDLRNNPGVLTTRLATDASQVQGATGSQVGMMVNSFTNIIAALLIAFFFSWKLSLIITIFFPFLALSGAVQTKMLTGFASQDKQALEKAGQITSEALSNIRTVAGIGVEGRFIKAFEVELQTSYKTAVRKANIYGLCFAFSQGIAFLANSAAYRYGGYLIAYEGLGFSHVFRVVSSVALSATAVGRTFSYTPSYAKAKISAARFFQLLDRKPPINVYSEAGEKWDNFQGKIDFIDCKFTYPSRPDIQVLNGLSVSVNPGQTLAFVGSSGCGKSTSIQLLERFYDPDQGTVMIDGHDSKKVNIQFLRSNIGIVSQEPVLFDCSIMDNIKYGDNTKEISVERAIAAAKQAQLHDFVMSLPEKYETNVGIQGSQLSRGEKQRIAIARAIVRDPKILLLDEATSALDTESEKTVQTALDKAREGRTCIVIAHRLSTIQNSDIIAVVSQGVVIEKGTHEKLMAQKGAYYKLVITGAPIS
ASSAY_PROCEDURE: TP_TRANSPORTER: inhibition of Taurocholate uptake (Taurocholate: 1 uM) in canalicular membrane vesicles from SD rat
Assay type: functional, cell membranes, Sprague-Dawley, Canalicular membrane vesicle
Where a name gives a salt, the structure may show the parent alone.
REPORTED_ENDPOINT: pIC50
Answers are plain numbers, as −log10 of the molar value.

{"MOLECULE": "C[C@H](CCC(=O)NCCS(=O)(=O)O)C1CC[C@H]2[C@@H]3[C@H](O)C[C@@H]4C[C@H](OS(=O)(=O)O)CC[C@]4(C)[C@H]3CC[C@]12C (some centres not stated) [TAUROCHENODEOXYCHOLATE SULFATE]", "REPORTED_ENDPOINT": "pIC50", "QUANTITATIVE_RESULT": 5.34}

Consider the record given below.
C[C@H](CCC(=O)NCCS(=O)(=O)O)C1CC[C@H]2[C@@H]3CC[C@@H]4C[C@H](OS(=O)(=O)O)CC[C@]4(C)[C@H]3CC[C@]12C (some centres not stated) has a reported pIC50 of 5.92

Data credit: ChEMBL document CHEMBL2074553
